# TARGET ENTITY: Disks large homolog 4 (Homo sapiens, UniProt P78352)
# EXPERIMENTAL DETAILS: Inhibition of PSD-95 PDZ3 domain by competitive fluorescence polarization assay
# MEASUREMENT CONDITIONS: read-out: Ki
# Sequence (P78352 whole entry, the tested form may be a part): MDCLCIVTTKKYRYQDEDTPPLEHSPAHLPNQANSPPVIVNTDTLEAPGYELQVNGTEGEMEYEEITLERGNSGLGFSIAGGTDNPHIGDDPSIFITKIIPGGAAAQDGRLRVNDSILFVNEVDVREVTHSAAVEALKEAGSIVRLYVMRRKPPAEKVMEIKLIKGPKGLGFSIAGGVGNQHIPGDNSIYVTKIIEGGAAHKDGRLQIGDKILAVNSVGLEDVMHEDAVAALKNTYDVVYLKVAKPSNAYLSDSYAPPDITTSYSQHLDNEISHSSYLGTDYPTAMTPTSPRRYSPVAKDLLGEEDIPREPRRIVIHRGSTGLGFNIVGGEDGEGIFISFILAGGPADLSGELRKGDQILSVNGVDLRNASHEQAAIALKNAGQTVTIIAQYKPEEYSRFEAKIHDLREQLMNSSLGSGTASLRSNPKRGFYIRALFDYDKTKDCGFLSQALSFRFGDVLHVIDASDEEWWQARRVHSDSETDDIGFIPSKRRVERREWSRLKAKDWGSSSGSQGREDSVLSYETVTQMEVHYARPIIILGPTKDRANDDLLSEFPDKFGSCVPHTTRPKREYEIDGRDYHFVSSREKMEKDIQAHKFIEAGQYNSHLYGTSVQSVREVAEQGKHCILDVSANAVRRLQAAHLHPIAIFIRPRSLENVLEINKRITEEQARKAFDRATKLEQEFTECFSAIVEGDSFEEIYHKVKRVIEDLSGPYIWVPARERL
pKi: −log10 of the molar value. Peptide text beside a SMILES is read from it.
Think of 4 as a floor: if pKi stands on it or above, it is true (1); beneath it, false (0).

{"COMPOUND": "CC(C)[C@H](NC(=O)[C@H](C)NC(=O)[C@@H](NC(=O)[C@H](CCC(=O)O)NCCCc1ccc(F)c(F)c1F)[C@@H](C)O)C(=O)O", "TARGET ENTITY": "Disks large homolog 4 (Homo sapiens, UniProt P78352)", "CLASS NAME": "true (1)"}
{"COMPOUND": "CC(C)[C@H](NC(=O)[C@H](C)NC(=O)[C@@H](NC(=O)[C@H](C)NCCc1ccc(Cl)c(Cl)c1)[C@@H](C)O)C(=O)O", "TARGET ENTITY": "Disks large homolog 4 (Homo sapiens, UniProt P78352)", "CLASS NAME": "true (1)"}
{"COMPOUND": "CC(C)[C@H](NC(=O)[C@H](C)NC(=O)[C@@H](NC(=O)[C@H](CCC(=O)O)NCCC1CCCCCC1)[C@@H](C)O)C(=O)O", "TARGET ENTITY": "Disks large homolog 4 (Homo sapiens, UniProt P78352)", "CLASS NAME": "true (1)"}
{"COMPOUND": "CC(C)[C@H](NC(=O)[C@H](CC(=O)O)NC(=O)[C@@H](NC(=O)[C@H](CCC(=O)O)NCCc1ccc2ccccc2c1)[C@@H](C)O)C(=O)O", "TARGET ENTITY": "Disks large homolog 4 (Homo sapiens, UniProt P78352)", "CLASS NAME": "false (0)"}
{"COMPOUND": "CC(C)[C@H](NC(=S)[C@H](C)NC(=O)[C@@H](NC(=O)[C@H](CCC(=O)O)NCCc1ccc(Cl)c(Cl)c1)[C@@H](C)O)C(=O)O", "TARGET ENTITY": "Disks large homolog 4 (Homo sapiens, UniProt P78352)", "CLASS NAME": "true (1)"}
{"COMPOUND": "CC(C)[C@H](NC(=O)[C@H](C)NC(=O)[C@@H](NC(=O)[C@H](C)N)[C@@H](C)O)C(=O)O (H-ATAV-OH)", "TARGET ENTITY": "Disks large homolog 4 (Homo sapiens, UniProt P78352)", "CLASS NAME": "false (0)"}

* * *

# TARGET ENTITY: Disks large homolog 4 (Homo sapiens)
# EXPERIMENTAL DETAILS: Inhibition of PSD-95 PDZ2 domain-GluN2B interaction expressed in COS7 cells transfected with pGFP2-PDZ2 and pRluc-N2B at 50 to 1000 uM by BRET assay
# Assay type: cell-based
# MEASUREMENT CONDITIONS: COS-7
# Sequence (P78352 whole entry, looked up, the tested form may be a part): as the sequence (P78352 whole entry, the tested form may be a part) above
The source made the active and inactive calls. The calls are words filed in the database; no cut-off is given here.
Labels: active, inactive

{"COMPOUND SMILES": "CC(C)[C@H](NC(=O)[C@H](C)NC(=O)[C@@H](NC(=O)[C@H](CCC(=O)O)NCCC1CCCCC1)[C@@H](C)O)C(=O)O", "TARGET ENTITY": "Disks large homolog 4 (Homo sapiens)", "CLASS NAME": "active"}
{"COMPOUND SMILES": "CC(C)[C@H](NC(=S)[C@H](C)NC(=O)[C@@H](NC(=O)[C@H](CCC(=O)O)NCCc1ccc(Cl)c(Cl)c1)[C@@H](C)O)C(=O)O", "TARGET ENTITY": "Disks large homolog 4 (Homo sapiens)", "CLASS NAME": "active"}
{"COMPOUND SMILES": "CC(C)[C@H](NC(=O)[C@H](C)NC(=O)[C@@H](NC(=O)[C@H](CCC(=O)O)NCCc1ccc(Cl)c(Cl)c1)[C@@H](C)O)C(=O)O", "TARGET ENTITY": "Disks large homolog 4 (Homo sapiens)", "CLASS NAME": "active"}
{"COMPOUND SMILES": "CC(C)[C@H](NC(=S)[C@H](C)NC(=O)[C@@H](NC(=O)[C@H](CCC(=O)O)NCCC1CCCCC1)[C@@H](C)O)C(=O)O", "TARGET ENTITY": "Disks large homolog 4 (Homo sapiens)", "CLASS NAME": "active"}
{"COMPOUND SMILES": "C[C@H](NC(=O)[C@H](C)NC(=O)[C@H](C)NC(=O)[C@H](CCC(=O)O)NCCCc1ccc(Cl)c(Cl)c1)C(=O)O", "TARGET ENTITY": "Disks large homolog 4 (Homo sapiens)", "CLASS NAME": "inactive"}
{"COMPOUND SMILES": "CC(C)[C@H](NC(=O)[C@H](C)NC(=O)[C@@H](NC(=O)[C@H](CCC(=O)O)NCCc1ccc2ccccc2c1)[C@@H](C)O)C(=O)O", "TARGET ENTITY": "Disks large homolog 4 (Homo sapiens)", "CLASS NAME": "active"}
{"COMPOUND SMILES": "CC(C)[C@H](NC(=S)[C@H](C)NC(=O)[C@@H](NC(=O)[C@H](CCC(=O)O)NCCc1ccc2ccccc2c1)[C@@H](C)O)C(=O)O", "TARGET ENTITY": "Disks large homolog 4 (Homo sapiens)", "CLASS NAME": "active"}
